# Assay system: T1, 4H3974-bA
# T1 chain: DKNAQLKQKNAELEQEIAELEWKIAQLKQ
# Protocol description: two-hybrid library CCNG1;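 note: natural log of median RNA to DNA barcode read ratio; higher means stronger binding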
Measured quantity: interaction score
Answers are plain numbers.

INSERT INTO results (binder, measured_quantity, value_measured) VALUES
  ('DKNAQLKQKIAELEQENAELEWEIAQLKQ [4H3858-bA]', 'interaction score', -0.665);

Provide each entry's interaction score from the list below.
1. DKNAQLEQEIAELKQKIAELEWENAQLKQ [4H3172-bA]
2. DKNAQLKQEIAELEQKNAELEWKIAQLKQ [4H3638-bA]

Response:
1: 0.174; 2: 0.0825
